test system: CCRIS mutagenicity, Ames/micronucleus/aberration tests; test: CCRIS mutagenicity studies; conditions: Test System: AMES SALMONELLA TYPHIMURIUM; Strain/Indicator: TA1535; Metabolic Activation: HAMSTER, LIVER, S-9, AROCLOR 1254; Method: PREINCUBATION
Active and inactive are the calls of the source. How the calls were made is not given here.
// allowed return values: 1 = active, -1 = inactive

| compound | assignedClass |
| --- | --- |
| CC(C)NCC(O)c1ccc(O)c(O)c1 (stereo not given) | -1 |
| Nc1ccc(NCCO)c([N+](=O)[O-])c1 | -1 |
| CC(Cl)CCCC(Cl)CCCC(Cl)CCCC(Cl)CCCC(Cl)CCCC(Cl)CCCl (stereo not given) | -1 |
| OC[P+](CO)(CO)CO | -1 |
| CN=[N+](C)[O-] | -1 |
| CCn1c2ccccc2c2cc(N)ccc21 | -1 |
| C1CNCCN1 | -1 |
| Clc1cccc(Cl)c1Cl | -1 |
| c1cc(OCC2CO2)cc(OCC2CO2)c1 (stereo not given) | 1 |
| CCCCOC(=O)c1ccc(N)cc1 | -1 |

-- ask // param item: CN(C)C(=O)Nc1ccc(Cl)cc1 ; yields the recorded call
-- reply -1

-- ask What would you report for ClC(Br)Br ?
-- reply -1

-- ask Next compound up: CCCCOCCOP(=O)(OCCOCCCC)OCCOCCCC
-- reply -1

-- ask Another compound: CC1=CC[C@H]2C(C)=CC[C@@H](C(C)C)[C@@H]2C1
-- reply -1

-- ask Okay, and ClC=C(Cl)Cl ?
-- reply -1

====

Test system: CCRIS mutagenicity, Ames/micronucleus/aberration tests
Assay: CCRIS mutagenicity studies
Conditions: Test System: AMES SALMONELLA TYPHIMURIUM; Strain/Indicator: TA98; Metabolic Activation: RAT, LIVER, S-9; Method: PREINCUBATION
Description: The CCRIS database contains chemical records with carcinogenicity, mutagenicity, tumor promotion, and tumor inhibition test results. It was developed by the National Cancer Institute (NCI). Data are derived from studies cited in primary journals, current awareness tools, NCI reports, and other sources. Test results have been reviewed by experts in carcinogenesis and mutagenesis. CCRIS provides historical information from the years 1985 - 2011. It is no longer updated. […]
Active and inactive are the calls of the source. How the calls were made is not given here.
# valid calls are active, inactive; nothing else

| compound | assignedClass |
| --- | --- |
| O=S(=O)(O)c1ccc(O)c2ncccc12 | active |
| COc1cc(NC(C)CCCN)c2ncccc2c1 (centres undefined) | inactive |
| CC1(C)COC1=O | inactive |

-- ask Assay result, entry Oc1cccc2cccnc12 — outcome?
-- reply active

====

test system: CCRIS mutagenicity, Ames/micronucleus/aberration tests; test: CCRIS mutagenicity studies; settings: Test System: UDS RAT HEPATOCYTES; Strain/Indicator: BROMODEOXYURIDINE INCORP; Metabolic Activation: NONE; Method: FLOW CYTOMETRIC ANALYSIS
Calls of active or inactive are those of the source. No rule for the calls is given here.
Respond only with the outcome that fits, drawn from active, inactive

-- ask Record lookup: outcome of this test for c1ccc2c(c1)ccc1ccccc12 ?
-- reply inactive

-- ask Entry Nc1ccccc1 please
-- reply inactive

-- ask Thanks! And c1cc2ccc3cccc4ccc(c1)c2c34 ?
-- reply inactive

-- ask What do you get for COS(C)(=O)=O ?
-- reply active
